B1: tRNA (parent)
chain: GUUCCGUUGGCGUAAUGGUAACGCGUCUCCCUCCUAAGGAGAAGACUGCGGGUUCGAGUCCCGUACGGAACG

variants of: B1; assay: yeast fitness relative to wild type (ratio to wild type); higher = fitter; tRNA-Arg(CCU), competitive growth, 37 C, YPD
Fewer inactive variants are shown than the library holds.
recordedEndpoint: yeast fitness

Worked examples follow.
| chain | recordedEndpoint | experimentalResult |
| --- | --- | --- |
| GUUCUGUUGGCGUAAUGGUAACGUGUCUCCCUCCUAACGAGAACACUGCGGGUUCGAGUCCCGUACGGAACG | yeast fitness | ≤ 0.5 |
| GUUCAGUUGGCGUAAUGGUAACGCGCUUCCCUCCUAAGGAGAAGACUGCGGGUUCGAGUCCCGUACGGAACG | yeast fitness | 0.687 |
| GUUCCAUUGGCGUAAUGGUAAGGCGUCUCCCUCCUAAGGAGAAGACUGCGGGAUCGAGUCCCGUACGGAACG | yeast fitness | ≤ 0.5 |

The value of yeast fitness measured for the variant GUUCCGUUGGCGUAAUGGUAACGCGUCUCCCUCCUGAGGAGAAGACAGCGGGUUCGAGUCCCGUACCGAACG turned out to be ≤ 0.5

The value of yeast fitness measured for the variant GUUCUGUUGGCGUAAUGGUAAUGCGUCUCCCUUCUAAGGAGAAGACUGCGGGUUCGAGUCCCGUACGGACCG turned out to be ≤ 0.5

The value of yeast fitness measured for the variant GUUCCGUUGGCGUUAUGCUAACGCGUCUCCCUCCUAAGCAGAAGACUGGGGGUUCGAGUCUCGUACGGAACG turned out to be ≤ 0.5
